# Run description: Half life in lung of methicillin-resistant Staphylococcus aureus infected ddY mouse at 100 mg/kg, ip administered 1 day post infection by fluorescence polarization immunoassay
# Type: ADME, organism-based
# Parameters: dose 100 mg/kg, route intraperitoneal
Outcome measure: half-life (h)
Respond with the bare value in h.

Task: Consider the compound CN[C@H](CC(C)C)C(=O)N[C@H]1C(=O)N[C@@H](CC(N)=O)C(=O)N[C@H]2C(=O)N[C@H]3C(=O)N[C@H](C(=O)N[C@H](C(=O)O)c4cc(O)cc(O)c4-c4cc3ccc4O)[C@H](O)c3ccc(c(Cl)c3)Oc3cc2cc(c3O[C@@H]2O[C@H](CO)[C@@H](O)[C@H](O)[C@H]2O[C@H]2C[C@](C)(N)[C@H](O)[C@H](C)O2)Oc2ccc(cc2Cl)[C@H]1O and give its recorded half-life.
Result: 1.72

###

# Run description: Half life in serum of methicillin-resistant Staphylococcus aureus infected ddY mouse at 100 mg/kg, ip administered 1 day post infection by paper disk bioassay method
# Format: ADME, organism-based
# Design: dose 100 mg/kg, route intraperitoneal
Outcome measure: half-life (min)
Give your result in min as a bare value.

Task: Give a short answer stating reported half-life for C[C@H]1C=C(c2csc(SC3=C(C(=O)O)N4C(=O)[C@H]([C@@H](C)O)[C@H]4[C@H]3C)n2)CN1 .
Result: 50.4

###

# Run description: Half life of free unbound fraction in serum of methicillin-resistant Staphylococcus aureus infected ddY mouse at 100 mg/kg, ip administered 1 day post infection by fluorescence polarization immunoassay
# Format: ADME, organism-based
# Design: dose 100 mg/kg, route intraperitoneal
Outcome measure: half-life
# answer = value followed by unit

Task: Note down half-life recorded for CN[C@H](CC(C)C)C(=O)N[C@H]1C(=O)N[C@@H](CC(N)=O)C(=O)N[C@H]2C(=O)N[C@H]3C(=O)N[C@H](C(=O)N[C@H](C(=O)O)c4cc(O)cc(O)c4-c4cc3ccc4O)[C@H](O)c3ccc(c(Cl)c3)Oc3cc2cc(c3O[C@@H]2O[C@H](CO)[C@@H](O)[C@H](O)[C@H]2O[C@H]2C[C@](C)(N)[C@H](O)[C@H](C)O2)Oc2ccc(cc2Cl)[C@H]1O
Result: 2.95 h

###

# Run description: Half life of free unbound fraction in serum of methicillin-resistant Staphylococcus aureus infected ddY mouse at 100 mg/kg, ip administered 1 day post infection by paper disk bioassay method
# Assay type: ADME, organism-based
# Parameters: dose 100 mg/kg, route intraperitoneal
Outcome measure: half-life (min)
Note: unit min is implicit; provide only the numeric part.

Task: Please report half-life for the following compound: C[C@H]1C=C(c2csc(SC3=C(C(=O)O)N4C(=O)[C@H]([C@@H](C)O)[C@H]4[C@H]3C)n2)CN1 [RAZUPENEM]
Result: 50.4

###

# Run description: Cmax in serum of methicillin-resistant Staphylococcus aureus infected ddY mouse at 100 mg/kg, ip administered 1 day post infection by paper disk bioassay method
# Assay type: ADME, organism-based
# Parameters: dose 100 mg/kg, route intraperitoneal
Outcome measure: Cmax (µg/mL)
Report only the number, with the unit µg/mL understood.

Task: Quickly give me recorded Cmax for C[C@H]1C=C(c2csc(SC3=C(C(=O)O)N4C(=O)[C@H]([C@@H](C)O)[C@H]4[C@H]3C)n2)CN1
Result: 108

###

# Run description: Cmax in lung of methicillin-resistant Staphylococcus aureus infected ddY mouse at 100 mg/kg, ip administered 1 day post infection by paper disk bioassay method
# Assay type: ADME, organism-based
# Parameters: dose 100 mg/kg, route intraperitoneal
Outcome measure: Cmax (ng/mL)
Number in ng/mL, nothing else.

Task: Please report Cmax for the following molecule: C[C@H]1C=C(c2csc(SC3=C(C(=O)O)N4C(=O)[C@H]([C@@H](C)O)[C@H]4[C@H]3C)n2)CN1
Result: 18000

###

# Run description: AUC (0 to infinity) in lung of methicillin-resistant Staphylococcus aureus infected ddY mouse at 100 mg/kg, ip administered 1 day post infection by fluorescence polarization immunoassay
# Type: ADME, organism-based
# Design: time infinity, dose 100 mg/kg, route intraperitoneal
Outcome measure: AUC(0-inf) (µg·h/mL)
Just the number in µg·h/mL, nothing appended.

Task: For the compound CN[C@H](CC(C)C)C(=O)N[C@H]1C(=O)N[C@@H](CC(N)=O)C(=O)N[C@H]2C(=O)N[C@H]3C(=O)N[C@H](C(=O)N[C@H](C(=O)O)c4cc(O)cc(O)c4-c4cc3ccc4O)[C@H](O)c3ccc(c(Cl)c3)Oc3cc2cc(c3O[C@@H]2O[C@H](CO)[C@@H](O)[C@H](O)[C@H]2O[C@H]2C[C@](C)(N)[C@H](O)[C@H](C)O2)Oc2ccc(cc2Cl)[C@H]1O [VANCOMYCIN] , report AUC(0-inf).
Result: 127

###

# Run description: AUC (0 to infinity) in lung of methicillin-resistant Staphylococcus aureus infected ddY mouse at 100 mg/kg, ip administered 1 day post infection by paper disk bioassay method
# Format: ADME, organism-based
# Design: dose 100 mg/kg, route intraperitoneal, time infinity
Outcome measure: AUC(0-inf) (ng·h/mL)
All answers are understood in ng·h/mL, so give the number only.

Task: Please supply the value of reported AUC(0-inf) for the item C[C@H]1C=C(c2csc(SC3=C(C(=O)O)N4C(=O)[C@H]([C@@H](C)O)[C@H]4[C@H]3C)n2)CN1
Result: 28400

###

# Run description: Cmax in serum of methicillin-resistant Staphylococcus aureus infected ddY mouse at 100 mg/kg, ip administered 1 day post infection by fluorescence polarization immunoassay
# Assay type: ADME, organism-based
# Design: dose 100 mg/kg, route intraperitoneal
Outcome measure: Cmax (µg/mL)
All answers are understood in µg/mL, so give the number only.

Task: Provide Cmax value for the following molecule: CN[C@H](CC(C)C)C(=O)N[C@H]1C(=O)N[C@@H](CC(N)=O)C(=O)N[C@H]2C(=O)N[C@H]3C(=O)N[C@H](C(=O)N[C@H](C(=O)O)c4cc(O)cc(O)c4-c4cc3ccc4O)[C@H](O)c3ccc(c(Cl)c3)Oc3cc2cc(c3O[C@@H]2O[C@H](CO)[C@@H](O)[C@H](O)[C@H]2O[C@H]2C[C@](C)(N)[C@H](O)[C@H](C)O2)Oc2ccc(cc2Cl)[C@H]1O
Result: 60.8
